Target: HLA-DRB1*0101 (human)
Assay: competition vs 125I-labelled probe peptide, purified HLA-DR
Conditions: remark: other sources report otherwise
observation-type: IC50

Enquiry: What does the data say about its IC50? Entry: GARLVVLATATPPGS (modifications not checked) [… (SEQ ID NO 2137)]
Return: 173 nM

Enquiry: Moving on to the next binder: TTIMAKNEVFCVQPE (modifications not checked) [… (SEQ ID NO 2226)]
Return: 3730 nM

Enquiry: Moving on to the next binder: ADLMGYIPLVGAPLG (modifications not checked) [… (SEQ ID NO 2105)]
Return: 8330 nM

Enquiry: Moving on to the next binder: GSSYGFQYSPGQRVE (modifications not checked) [… (SEQ ID NO 2153)]
Return: 11 nM

Enquiry: Moving on to the next binder: LAGYGAGVAGALVAF (modifications not checked) [… (SEQ ID NO 2166)]
Return: 137 nM

Enquiry: Moving on to the next binder: WESVFTGLTHIDAHF (modifications not checked) [… (SEQ ID NO 2245)]
Return: 122 nM

Enquiry: Moving on to the next binder: DVVVVATDALMTGYT (modifications not checked) [… (SEQ ID NO 2125)]
Return: 456 nM
